- assay.target: complement C5a receptor 1 (C5aR1) (Homo sapiens, UniProt P21730)
- Construct: β-galactosidase fragment (PathHunter enzyme complementation); host or cells: CHO-K1 (PathHunter CHO-K1 C5aR1 β-arrestin cell line)
- Sequence (P21730 whole entry, the tested form may be a part): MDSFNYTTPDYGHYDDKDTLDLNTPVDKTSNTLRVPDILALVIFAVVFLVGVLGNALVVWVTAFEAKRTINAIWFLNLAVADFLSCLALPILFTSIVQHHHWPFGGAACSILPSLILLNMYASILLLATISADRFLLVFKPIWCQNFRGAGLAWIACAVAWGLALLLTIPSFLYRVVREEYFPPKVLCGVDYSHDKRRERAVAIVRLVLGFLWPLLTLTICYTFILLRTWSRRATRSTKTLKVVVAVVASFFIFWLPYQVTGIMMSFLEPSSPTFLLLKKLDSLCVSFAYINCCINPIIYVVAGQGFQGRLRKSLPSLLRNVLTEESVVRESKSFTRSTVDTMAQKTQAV
- assay.remarks: β-arrestin recruitment via C5aR1 activation in live CHO-K1 cells (PathHunter), agonist mode
- Format: cell-based
- condition.info: at 10 μM
reported.metric: [Agonist] B-arrestin2 recruitment: Average EC50 (nM)

>  <molecule>
Cc1ccc2cc([C@H]3CC[C@H](c4c(F)cccc4F)CC3)c(=O)n(Cc3ncccc3OC(F)(F)F)c2n1

>  <observed.measurement>
Non-Active at 10 μM

$$$$
>  <molecule>
Cc1cccc(F)c1[C@@H]1CC[C@H](c2cc3nccnc3n(Cc3ncccc3C(F)(F)F)c2=O)C1 [200A]

>  <observed.measurement>
Non-Active at 10 μM

$$$$
>  <molecule>
Cc1cnc2cc([C@@H]3CC[C@H](c4c(C)cccc4F)C3)c(=O)n(Cc3ncccc3OC(F)F)c2n1 [175B]

>  <observed.measurement>
Non-Active at 10 μM

$$$$
>  <molecule>
COc1nccc(C)c1[C@H]1CC[C@H](c2cc3ccc(C)nc3n(Cc3ncccc3C(F)(F)F)c2=O)CC1

>  <observed.measurement>
Non-Active at 10 μM

$$$$
>  <molecule>
Cc1cnc2cc([C@H]3CC[C@H](c4c(F)ccc5c4cnn5C)CC3)c(=O)n(Cc3ncccc3C(F)(F)F)c2n1

>  <observed.measurement>
Non-Active at 10 μM

$$$$
>  <molecule>
Cc1cnc2cc([C@H]3CC[C@@H](c4c(C)cccc4F)C3)c(=O)n(Cc3ncccc3C(F)F)c2n1 [187A]

>  <observed.measurement>
Non-Active at 10 μM

$$$$
>  <molecule>
Cc1cnc2cc(C3CCN(c4cccnc4C(F)(F)F)CC3)c(=O)n(Cc3ncccc3C(F)(F)F)c2n1

>  <observed.measurement>
Non-Active at 10 μM

$$$$
>  <molecule>
Cc1cnc2cc(C3CCN(c4nccnc4C)CC3)c(=O)n(Cc3ncccc3C(F)(F)F)c2n1

>  <observed.measurement>
Non-Active at 10 μM

$$$$
>  <molecule>
Cc1ccc2cc([C@H]3CC[C@H](c4c(C)cccc4F)CC3)c(=O)n(Cc3ccccc3C(F)(F)F)c2n1

>  <observed.measurement>
Non-Active at 10 μM

$$$$
>  <molecule>
Cc1ccc2cc([C@H]3CC[C@H](c4c(C)cccc4F)CC3)c(=O)n(Cc3nccnc3C(F)F)c2n1

>  <observed.measurement>
Non-Active at 10 μM

$$$$
>  <molecule>
Cc1cnc2cc([C@H]3CC[C@H](c4c(C)cccc4F)CC3)c(=O)n(Cc3ncccc3CC(F)(F)F)c2n1

>  <observed.measurement>
Non-Active at 10 μM

$$$$
>  <molecule>
Cc1cnc2c(cc([C@H]3CC[C@H](c4c(C)cccc4F)CC3)c(=O)n2Cc2ncccc2C(F)(F)F)n1

>  <observed.measurement>
Non-Active at 10 μM

$$$$
>  <molecule>
Cc1cnc2cc([C@H]3CC[C@H](c4c(C)cccc4F)C3)c(=O)n(Cc3nccnc3C(F)(F)F)c2n1 [197B]

>  <observed.measurement>
Non-Active at 10 μM

$$$$
>  <molecule>
Cc1cnc2cc([C@H]3CC[C@@H](c4c(C)ccnc4F)CC3)c(=O)n(Cc3ncccc3C(F)(F)F)c2n1 [147A]

>  <observed.measurement>
Non-Active at 10 μM

$$$$
>  <molecule>
Cc1ccc2c(c1)nc(C1CCN(c3c(C)cccc3F)CC1)c(=O)n2Cc1nccnc1C(F)(F)F [144B]

>  <observed.measurement>
Non-Active at 10 μM

$$$$
